RUN PARAMETERS: in water, 298.15 K
MEASUREMENT LABEL: solubility (mole fraction)
Keep the answer to the number alone.

## Input Given the entry `CCOC(=O)[C@@H](C)Oc1ccc(Oc2nc3ccc(Cl)cc3o2)cc1` , report its measured solubility (mole fraction).
## Output 7.36e-06

----------
RUN PARAMETERS: in ethanol, 318.15 K
MEASUREMENT LABEL: solubility (mole fraction)
Keep the answer to the number alone.

## Input Given the entry `CCOC(=O)[C@@H](C)Oc1ccc(Oc2nc3ccc(Cl)cc3o2)cc1` , report its measured solubility (mole fraction).
## Output 0.00446

----------
RUN PARAMETERS: in ethanol, 298.15 K
MEASUREMENT LABEL: solubility (mole fraction)
Keep the answer to the number alone.

## Input Given the entry `CCOC(=O)[C@@H](C)Oc1ccc(Oc2nc3ccc(Cl)cc3o2)cc1` , report its measured solubility (mole fraction).
## Output 0.00224

----------
RUN PARAMETERS: in water, 278.15 K
MEASUREMENT LABEL: solubility (mole fraction)
Keep the answer to the number alone.

## Input Given the entry `CCOC(=O)[C@@H](C)Oc1ccc(Oc2nc3ccc(Cl)cc3o2)cc1` , report its measured solubility (mole fraction).
## Output 1.93e-06

----------
RUN PARAMETERS: in water, 303.15 K
MEASUREMENT LABEL: solubility (mole fraction)
Keep the answer to the number alone.

## Input Given the entry `CCOC(=O)[C@@H](C)Oc1ccc(Oc2nc3ccc(Cl)cc3o2)cc1` , report its measured solubility (mole fraction).
## Output 9.61e-06

----------
RUN PARAMETERS: in water, 318.15 K
MEASUREMENT LABEL: solubility (mole fraction)

## Input Given the entry `CCOC(=O)[C@@H](C)Oc1ccc(Oc2nc3ccc(Cl)cc3o2)cc1` , report its measured solubility (mole fraction).
## Output 2.03e-05

----------
RUN PARAMETERS: in water, 313.15 K
MEASUREMENT LABEL: solubility (mole fraction)

## Input Given the entry `CCOC(=O)[C@@H](C)Oc1ccc(Oc2nc3ccc(Cl)cc3o2)cc1` , report its measured solubility (mole fraction).
## Output 1.59e-05

----------
RUN PARAMETERS: in water, 293.15 K
MEASUREMENT LABEL: solubility (mole fraction)
Keep the answer to the number alone.

## Input Given the entry `CCOC(=O)[C@@H](C)Oc1ccc(Oc2nc3ccc(Cl)cc3o2)cc1` , report its measured solubility (mole fraction).
## Output 5.68e-06

----------
RUN PARAMETERS: in ethanol, 288.15 K
MEASUREMENT LABEL: solubility (mole fraction)
Keep the answer to the number alone.

## Input Given the entry `CCOC(=O)[C@@H](C)Oc1ccc(Oc2nc3ccc(Cl)cc3o2)cc1` , report its measured solubility (mole fraction).
## Output 0.0015

----------
RUN PARAMETERS: in ethanol, 283.15 K
MEASUREMENT LABEL: solubility (mole fraction)
Keep the answer to the number alone.

## Input Given the entry `CCOC(=O)[C@@H](C)Oc1ccc(Oc2nc3ccc(Cl)cc3o2)cc1` , report its measured solubility (mole fraction).
## Output 0.00121

----------
RUN PARAMETERS: in ethanol, 293.15 K
MEASUREMENT LABEL: solubility (mole fraction)
Keep the answer to the number alone.

## Input Given the entry `CCOC(=O)[C@@H](C)Oc1ccc(Oc2nc3ccc(Cl)cc3o2)cc1` , report its measured solubility (mole fraction).
## Output 0.00186

----------
RUN PARAMETERS: in ethanol, 308.15 K
MEASUREMENT LABEL: solubility (mole fraction)
Keep the answer to the number alone.

## Input Given the entry `CCOC(=O)[C@@H](C)Oc1ccc(Oc2nc3ccc(Cl)cc3o2)cc1` , report its measured solubility (mole fraction).
## Output 0.00314

----------
RUN PARAMETERS: in water, 283.15 K
MEASUREMENT LABEL: solubility (mole fraction)

## Input Given the entry `CCOC(=O)[C@@H](C)Oc1ccc(Oc2nc3ccc(Cl)cc3o2)cc1` , report its measured solubility (mole fraction).
## Output 2.91e-06
